Just for reference, paper PMC9029050 is where these values come from.

Test system: erg-mediated K+ channel (Kerg, KV11)
Construct: gene Kcnh2; native channel in GH3 pituitary tumor cells
method_summary: whole-cell patch clamp of native IK(erg) in GH3 cells
Assay type: cell-based
readout: IC50 (nM)

{"molecule": "CC1=CC(=O)c2cccc(O)c2C1=O [isoPLB, 8-hydroxy-2-methylnaphthalene-1,4-dione]", "reported_value": 2400}
